test.system: UniProtKB Q16853
Sequence (Q16853 whole entry): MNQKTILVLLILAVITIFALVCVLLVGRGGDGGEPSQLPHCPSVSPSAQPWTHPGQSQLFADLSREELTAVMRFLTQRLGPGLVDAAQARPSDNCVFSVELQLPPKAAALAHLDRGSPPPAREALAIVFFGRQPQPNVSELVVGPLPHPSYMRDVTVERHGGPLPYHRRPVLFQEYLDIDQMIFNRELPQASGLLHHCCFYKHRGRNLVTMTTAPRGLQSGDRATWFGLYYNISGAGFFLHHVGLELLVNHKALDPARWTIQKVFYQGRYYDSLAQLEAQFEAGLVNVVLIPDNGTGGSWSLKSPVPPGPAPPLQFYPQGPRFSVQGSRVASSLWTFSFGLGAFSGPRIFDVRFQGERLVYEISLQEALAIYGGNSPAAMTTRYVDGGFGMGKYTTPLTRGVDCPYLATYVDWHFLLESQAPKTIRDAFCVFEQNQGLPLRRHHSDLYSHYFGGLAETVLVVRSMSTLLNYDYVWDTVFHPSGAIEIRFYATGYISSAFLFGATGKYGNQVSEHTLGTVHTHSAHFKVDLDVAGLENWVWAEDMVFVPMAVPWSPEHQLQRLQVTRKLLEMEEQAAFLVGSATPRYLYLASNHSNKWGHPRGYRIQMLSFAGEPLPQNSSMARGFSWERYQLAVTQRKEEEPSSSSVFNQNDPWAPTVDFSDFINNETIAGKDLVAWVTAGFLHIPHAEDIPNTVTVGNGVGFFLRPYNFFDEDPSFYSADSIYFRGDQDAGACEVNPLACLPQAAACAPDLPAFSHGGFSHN
assay.name: MAO-Glo AOC3 assay (recombinant CHO cells overexpressing AOC3)
Assay type: biochemical
measurement.conditions: Table 1, read-out: AOC3 IC50
Description: The MAO-Glo™ Assay (commercial available from PROMEGA, # V1402) provides a sensitive method for the measurement of monoamine oxidase (MAO) activity (Valley, M. P. et al., 2006, Anal. Biochem. 359: 238-246) from a variety of tissues, biofluids or recombinant expressed or purified enzymes. […] After a spontaneous elimination and a catalyzed esterase reaction, the turnover of the luciferine by the luciferase is recorded as a signal of AOC3 activity. […]
pIC50: −log10 of the molar value.
measurement.type: pIC50

See these solved cases before continuing.
molecule	result.value
COc1ccc(C2CCN(c3nccc(COC(=O)NC(=N)N)c3F)CC2)cc1	8.30
N=C(N)NC(=O)OCc1ccnc(N2CC=C(c3ccc(Cl)cc3)CC2)c1F	7.82
N=C(N)NC(=O)OCc1ccnc(N2CCN(c3ccc(C(N)=O)cc3)CC2)c1F	8.52
CC1CN(c2nccc(COC(=O)NC(=N)N)c2F)CCN1c1ccccc1 (stereo not drawn)	7.85
N=C(N)NC(=O)OCc1ccnc(N2CCC(C3CCN(S(N)(=O)=O)CC3)CC2)c1F	8.05

1: CC(=O)c1ccc(N2CCN(c3nccc(COC(=O)NC(=N)N)c3F)CC2)nc1
2: N=C(N)NC(=O)OCc1ccnc(N2CC=C(c3ccccc3)CC2)c1F
Exam item: Select the item whose pIC50 value is smaller, choosing between 1 and 2 . Answer with the label corresponding to your selection.
Marked response: 2

A: CC(C)(C)OC(=O)N1CC(C2CCN(c3nccc(COC(=O)NC(=N)N)c3F)CC2)C1
B: Cc1cnc(C2=CCN(c3nccc(COC(=O)NC(=N)N)c3F)CC2)o1
Exam item: Between these two entries, A and B , state which has the higher pIC50. Indicate which entry you chose by stating its label.
Marked response: B

P: N=C(N)NC(=O)OCc1ccnc(N2CCN(c3ncc(C(F)(F)F)cn3)CC2)c1F
Q: N=C(N)NC(=O)OCc1ccnc(N2CCN(C3CCCC3)C(=O)C2)c1F
R: N#Cc1cccc(C2CCN(c3nccc(COC(=O)NC(=N)N)c3F)CC2)c1
S: N=C(N)NC(=O)OCc1ccnc(N2CCN(c3ccc(Cl)cn3)CC2)c1F
Exam item: Sort these molecules on pIC50 so the largest reading comes first. Use the labels to give the requested order.
Marked response: R, S, P, Q

1: N=C(N)NC(=O)OCc1ccnc(N2CCC(c3ccc(C(F)(F)F)cc3)CC2)c1F
2: Cc1cnc(C2=CCN(c3nccc(COC(=O)NC(=N)N)c3F)CC2)nc1
Exam item: Between 1 and 2 , which one shows the smaller pIC50 number? Bench note: the answer is the label of the chosen record.
Marked response: 2
(2: 7.64, 1: 7.92)

Each recorded value in this set is attributed to patent US10730850B2.
